Target: CDK9/Cyclin T1 (Homo sapiens)
Experiment: LanthaScreen Eu Kinase Binding Assay, CDK9/Cyclin T1
Conditions: tracer 236, read-out: Affinity (Kd) CDK9/Cyclin T1
pKd: −log10 of the molar value. Structures can show the parent of a compound that is named as a salt.
EXPERIMENTAL_ENDPOINT: pKd

Previously resolved entries follow.
NS(=O)(=O)Cc1cccc(Nc2ncnc(-c3cccc4c3OCO4)n2)c1 ... 6.85
CCOc1ccccc1-c1ncnc(Nc2cccc(CS(N)(=O)=O)c2)n1 ... 8.00
COc1ccccc1-c1ncnc(Nc2ccccc2)n1 [Compound P1] ... 6.90
COc1ccccc1-c1ncnc(Nc2cccc(NC(=O)Nc3ccccc3)c2)n1 ... 6.32
COc1ccccc1-c1ncnc(Nc2cccc(CS(N)(=O)=O)c2)n1 [B1′, trifluoroacetic acid salt] ... 8.12

P: COc1ccc(Cl)cc1-c1ncnc(Nc2cccc(CS(N)(=O)=O)c2)n1
Q: COc1ccncc1-c1ncnc(Nc2cccc(CS(N)(=O)=O)c2)n1
Prompt: Looking at P and Q , which one comes out lower in pKd terms? Identify your selection by its label.
Completion: Q
(Q: 6.98, P: 7.26)

A: COc1ccccc1-c1ncnc(Nc2cccc(NS(C)(=O)=O)c2)n1
B: COc1ccccc1-c1ncnc(Nc2cccc(NC(C)=O)c2)n1
C: COc1c(F)cc(F)cc1-c1ncnc(Nc2cccc(CS(N)(=O)=O)c2)n1
Prompt: I would appreciate it if you could sort these 3 compounds by pKd, starting from the smallest number. # format: label list in the order the request specifies
Completion: C, B, A
(C: 6.08, B: 6.84, A: 7.41)

1: COc1ccccc1-c1ncnc(Nc2ccc(CS(N)(=O)=O)cc2)n1
2: COc1cc(Cl)ccc1-c1ncnc(Nc2cccc(CS(N)(=O)=O)c2)n1
3: Nc1ccc(-c2ncnc(Nc3cccc(CS(N)(=O)=O)c3)n2)cn1
4: NS(=O)(=O)Cc1cccc(Nc2ncnc(-c3ccccc3OCc3ccccc3)n2)c1 [B13′, trifluoroacetic acid salt]
5: COc1cc(C(F)(F)F)ccc1-c1ncnc(Nc2cccc(CS(N)(=O)=O)c2)n1
Prompt: I would appreciate it if you could sort these 5 compounds by pKd, starting from the smallest number. # format: label list in the order the request specifies
Completion: 5, 3, 1, 2, 4
(5: 5.91, 3: 7.00, 1: 7.36, 2: 7.96, 4: 8.26)

a: COc1ccccc1-c1ncnc(Nc2ccc3c(c2)N(S(N)(=O)=O)CC3)n1
b: NS(=O)(=O)Cc1cccc(Nc2ncnc(-c3ccccc3OCc3ccccc3)n2)c1 [Compound B13]
c: COCc1ccccc1-c1ncnc(Nc2cccc(CS(N)(=O)=O)c2)n1
d: COc1ccc(F)cc1-c1ncnc(Nc2cccc(CS(N)(=O)=O)c2)n1
Prompt: Rank entries according to their pKd, from the largest number down. # format: label list in the order the request specifies
Completion: b, d, a, c

###

Target: CDK2/CyclinA (Homo sapiens, UniProt P24941)
Test: LanthaScreen Eu Kinase Binding Assay, CDK2
Settings: tracer 236, read-out: Affinity (Kd) CDK2
Counter-ions that a name gives are not always drawn.
EXPERIMENTAL_ENDPOINT: Kd (nM)

Previously resolved entries follow.
COc1cc(F)ccc1-c1ncnc(Nc2cccc(CS(=O)(=O)NCCCCN)c2)n1 [Compound R1] ... 2920
COc1cc(F)ccc1-c1ncnc(Nc2cccc(CS(N)(=O)=O)c2)n1 [B2′, hydrochloride] ... 207

I: COc1ccccc1-c1ncnc(Nc2ccc(CS(N)(=O)=O)cc2)n1 [Compound T1]
II: NS(=O)(=O)Cc1cccc(Nc2ncnc(-c3ccccc3Oc3ccccc3)n2)c1 [Compound B14]
III: COc1ccccc1-c1ncnc(Nc2ccccc2)n1 [Compound P1]
Prompt: Rank entries according to their Kd, from the largest number down. # format: label list in the order the request specifies
Completion: II, III, I

###

Target: CDK9/Cyclin T1 (Homo sapiens, UniProt P50750)
Sequence (P50750 whole entry): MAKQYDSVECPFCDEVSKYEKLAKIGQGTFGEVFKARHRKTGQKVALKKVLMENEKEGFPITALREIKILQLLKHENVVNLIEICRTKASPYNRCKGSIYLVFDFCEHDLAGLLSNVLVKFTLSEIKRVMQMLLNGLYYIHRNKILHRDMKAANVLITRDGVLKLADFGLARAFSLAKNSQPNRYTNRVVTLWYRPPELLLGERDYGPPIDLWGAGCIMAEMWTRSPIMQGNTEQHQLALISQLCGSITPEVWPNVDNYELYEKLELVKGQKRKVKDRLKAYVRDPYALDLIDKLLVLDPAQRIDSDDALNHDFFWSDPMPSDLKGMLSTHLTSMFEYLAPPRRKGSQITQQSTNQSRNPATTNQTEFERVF
Sequence (O60563 whole entry partner): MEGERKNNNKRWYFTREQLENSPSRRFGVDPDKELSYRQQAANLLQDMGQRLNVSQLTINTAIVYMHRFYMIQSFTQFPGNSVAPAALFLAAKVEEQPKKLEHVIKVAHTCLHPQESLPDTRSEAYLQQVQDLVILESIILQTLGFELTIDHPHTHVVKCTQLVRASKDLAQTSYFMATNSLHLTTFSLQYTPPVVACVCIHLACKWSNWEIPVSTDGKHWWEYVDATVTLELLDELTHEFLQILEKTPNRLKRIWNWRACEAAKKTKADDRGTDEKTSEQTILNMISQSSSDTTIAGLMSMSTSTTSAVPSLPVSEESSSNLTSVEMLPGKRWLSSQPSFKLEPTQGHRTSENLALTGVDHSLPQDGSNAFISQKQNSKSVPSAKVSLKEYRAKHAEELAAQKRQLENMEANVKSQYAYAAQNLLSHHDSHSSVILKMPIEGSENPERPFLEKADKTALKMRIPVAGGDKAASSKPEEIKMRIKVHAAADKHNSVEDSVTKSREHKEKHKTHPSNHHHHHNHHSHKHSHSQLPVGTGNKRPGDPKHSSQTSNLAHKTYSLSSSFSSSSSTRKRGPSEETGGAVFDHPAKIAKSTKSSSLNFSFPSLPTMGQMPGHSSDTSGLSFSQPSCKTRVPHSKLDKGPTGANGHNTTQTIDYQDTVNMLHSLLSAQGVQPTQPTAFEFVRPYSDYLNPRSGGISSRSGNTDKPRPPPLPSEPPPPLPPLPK
Assay: LanthaScreen Eu Kinase Binding Assay, CDK9/Cyclin T1
Details: tracer 236, read-out: Affinity (Kd) CDK9/Cyclin T1
Counter-ions that a name gives are not always drawn.
Measured Kd, listed per entry for reference.

CCOC(=O)N=S(C)(=O)c1cccc(Nc2ncnc(-c3ccccc3OC)n2)c1 (racemic) ... 105 nM

Prompt: Identify measured Kd associated with "NS(=O)(=O)Cc1cccc(Nc2ncnc(-c3ccccc3OCc3ccncc3)n2)c1"
Completion: < 5 nM

Prompt: Identify measured Kd associated with COc1ccccc1-c1ncnc(Nc2cccc(S(N)(=O)=O)c2)n1 [C1′, trifluoroacetic acid salt]
Completion: < 5 nM
